result_type: melting point

Record excerpt, results attached:
CC(=O)NCCO[C@H]1COc2ccc3cnn(C[C@@H](C)O)c3c2C1 = 165 to 166 °C
NS(=O)(=O)c1ccc(-c2ccc(F)cc2F)cc1 = 143 °C
OC(CCN1CC=C(c2ccc(Cl)cc2)CC1)c1ccc(Cl)cc1Cl (stereo not given) = 96 to 98 °C
COc1cc(N)c(Cl)cc1C(=O)NCC1CCN(CCCCOc2ccccc2)CC1 = 71 to 73 °C
CCc1ccc(Nc2nc3cc(NC(=O)c4ccc([N+](=O)[O-])cc4Cl)ccc3o2)cc1 = > 250 °C
COc1ccc(CN2C(CN3CCOCC3)=Cc3ccsc3S2(=O)=O)cc1 = 112 to 114 °C
O=C(O)CCn1cc(Cc2cccnc2)c2cc(NS(=O)(=O)c3ccc(F)cc3)ccc21 = 214 to 215 °C
COc1ccc(-n2c(CC(=O)O)c(C(=O)O)c3cc(Oc4cccc(C(F)(F)F)c4)ccc32)cc1 = 210 °C
COc1nc(OC)nc(-n2c(N)nc3cc(Cl)ccc32)n1 = 293 to 296 °C
O=C(O)c1ccccc1-c1ccccc1CN1C(=O)c2ccccc2C1=O = 198 °C

(Q) // lookup melting point for "CCCCCCCCCCCCCCNC(=O)c1cnccn1"
(A) 80 to 81 °C

(Q) Can you share its melting point? I mean this compound: "CCCCc1ncc(/C=C(\Cc2ccccc2)C(=O)O)n1Cc1c(F)cccc1Cl"
(A) 204 to 206 °C

(Q) Need melting point of CC(=O)CC1CN=C(c2cc3cccc(N(C)S(=O)(=O)c4cccs4)c3[nH]2)S1 (stereo not given) , thanks.
(A) 123 to 124 °C

(Q) Entry "COc1ccc(-c2nc(C(=O)c3ccc(N)c(C(=O)O)c3)n3ccccc23)cc1" : reported melting point = ?
(A) 296 °C

====

result_type: melting point

Here is how some molecules turned out for melting point.
CCOC(=O)c1cc([N+](=O)[O-])c(=O)[nH]c1C(=O)OCC = 144 to 145 °C
O=C1C=C(c2ccc(F)cc2)CN1 = 190 °C
C=CCOc1ccc2c(c1)C(=O)NC(C)(C)O2 = 137 to 138 °C
CCCCCCCCSc1ccc(CC(COC(C)=O)(COC(C)=O)NC(C)=O)cc1 = 71 to 74 °C
O=C(CN1C(=O)c2ccccc2C1=O)c1ncc(C(F)(F)F)cc1Cl = 162 °C

(Q) Fill in: melting point of COC1CCC2C3CCc4cc(O)c(C=O)cc4C3CCC12C (stereo unspecified) is ___
(A) 120 to 121 °C

====

result_type: melting point

Sample records with melting point:
Ic1nc(-c2ccccn2)[nH]c1I = 177 to 179 °C
Cn1cc(C(=O)NCc2ccc(Cl)cc2)c(=O)c2cc(C(C)(C)CCO)ccc21 = 135 to 138 °C
N#CC(C#N)=C(NC1CCN(Cc2ccccc2)CC1)NC1CCN(Cc2ccccc2)CC1 = 147 to 148 °C
COc1ccc(C(=O)O)c2c1OCCO2 = 224 to 226 °C

(Q) # get_value(readout='melting point', item= "COC(=O)CCCc1cc2c(Nc3cc(OC)c(OC)c(OC)c3)c(C#N)cnc2s1" )
(A) 101 to 103 °C

(Q) For the molecule "Cc1ccc(NC(=O)c2cccc(N(C)C)c2)cc1NC(=O)c1cccc(N(C)S(C)(=O)=O)c1" , what melting point is on record?
(A) 168 to 169 °C

(Q) Which melting point value is on record for "CCCCc1ncc(/C=C(\Cc2cccs2)C(=O)O)n1Cc1cccc(OC)c1" ?
(A) 170 to 171 °C

(Q) Would you kindly share the measured melting point for C=CCOC(=O)Nc1ccc(N2CCN(N3C=NN(CC(C)(O)c4ccc(Cl)cc4Cl)C3)CC2)cc1 (stereo not given) ?
(A) 177 to 179 °C

(Q) For the molecule COc1cc(N)c(Cl)cc1C(=O)NC1CC2CCCCN2C1 (stereo not given) , what melting point is on record?
(A) 192 to 193 °C

(Q) Item "CCOc1ccc(C(=O)OC)c(Cl)n1" has what recorded melting point?
(A) 46 to 48 °C
